B1: Low-density lipoprotein receptor-related protein 8 (Homo sapiens), Q14114 (parent)
chain: MGLPEPGPLRLLALLLLLLLLLLLQLQHLAAAAADPLLGGQGPAKDCEKDQFQCRNERCIPSVWRCDEDDDCLDHSDEDDCPKKTCADSDFTCDNGHCIHERWKCDGEEECPDGSDESEATCTKQVCPAEKLSCGPTSHKCVPASWRCDGEKDCEGGADEAGCATLCAPHEFQCGNRSCLAAVFVCDGDDDCGDGSDERGCADPACGPREFRCGGDGGGACIPERWVCDRQFDCEDRSDEAAELCGRPGPGATSAPAACATASQFACRSGECVHLGWRCDGDRDCKDKSDEADCPLGTCRGDEFQCGDGTCVLAIKHCNQEQDCPDGSDEAGCLQGLNECLHNNGGCSHICTDLKIGFECTCPAGFQLLDQKTCGDIDECKDPDACSQICVNYKGYFKCECYPGYEMDLLTKNCKAAAGKSPSLIFTNRHEVRRIDLVKRNYSRLIPMLKNVVALDVEVATNRIYWCDLSYRKIYSAYMDKASDPKEQEVLIDEQLHSPEGLAVDWVHKHIYWTDSGNKTISVATVDGGRRRTLFSRNLSEPRAIAVDPLRGFMYWSDWGDQAKIEKSGLNGVDRQTLVSDNIEWPNGITLDLLSQRLYWVDSKLHQLSSIDFSGGNRKTLISSTDFLSHPFGIAVFEDKVFWTDLENEAIFSANRLNGLEISILAENLNNPHDIVIFHELKQPRAPDACELSVQPNGGCEYLCLPAPQISSHSPKYTCACPDTMWLGPDMKRCYRAPQSTSTTTLASTMTRTVPATTRAPGTTVHRSTYQNHSTETPSLTAAVPSSVSVPRAPSISPSTLSPATSNHSQHYANEDSKMGSTVTAAVIGIIVPIVVIALLCMSGYLIWRNWKRKNTKSMNFDNPVYRKTTEEEDEDELHIGRTAQIGHVYPAAISSFDRPLWAEPCLGETREPEDPAPALKELFVLPGEPRSQLHQLPKNPLSELPVVKSKRVALSLEDDGLP

Variants of: B1
Test Settings: with reln_mouse Reln

Residue Change | effect of a mutation on the interaction
V63A | decreasing interaction
P61A | disrupting interaction
W64H | disrupting interaction
D69N | disrupting interaction
D50A | decreasing interaction
